Molecular target: BRD4 (BDI_K57-E168) (Homo sapiens (Human), UniProt O60885)
Test: TR-FRET bromodomain binding assay, BRD4 BDI
Settings: mean Ki, calculated from IC50, probe Kd and probe concentration
pKi: −log10 of the molar value.
QUANTITY_KIND: pKi

CCS(=O)(=O)Nc1ccc(Oc2ccc(F)cc2F)c(-c2cn(C)c(=O)c3[nH]ccc23)c1 [Compound X, reference compound] ... 8.68
Cc1cccc(Cl)c1Oc1ccc(C(C)(C)O)cc1-c1cn(C)c(=O)c2[nH]c(C(=O)NC(C)(C)C)cc12 ... 6.59
CCNC(=O)c1cc2c(-c3cc(C(C)(O)CF)cnc3Oc3c(C)cc(Cl)cc3C)cn(C)c(=O)c2[nH]1 (stereo not shown) ... 6.51
CCNC(=O)c1cc2c(-c3cc(C(C)(C)O)ccc3C3=CCCC3)cn(C)c(=O)c2[nH]1 ... 7.02
CCNC(=O)c1cc2c(-c3cc(C(O)(CC)C4CCCC4)cnc3Oc3c(C)cccc3C)cn(C)c(=O)c2[nH]1 (stereo not shown) ... 6.77
CCNC(=O)c1cc2c(-c3cc(C(C)(C)O)cnc3Oc3c(C)cc(C(C)(C)O)cc3C)cn(C)c(=O)c2[nH]1 ... 6.57
CCNC(=O)c1cc2c(-c3cc(C(C)(C)O)ccc3Oc3c(C)ccc(Cl)c3C)cn(C)c(=O)c2[nH]1 ... 6.37
CCNC(=O)c1cc2c(-c3cc(C(O)(CC)C4CC4)cnc3Oc3c(C)cccc3C)cn(C)c(=O)c2[nH]1 (stereo not shown) ... 7.01

a = Cn1cc(-c2cc(CO)ccc2Oc2ccccc2)c2cc[nH]c2c1=O [Compound Z, reference compound]
b = CCNC(=O)c1cc2c(-c3cc(C(C)(C)O)ccc3Oc3c(C)cc(Br)cc3C)cn(C)c(=O)c2[nH]1
Between these two entries, a and b , state which has the higher pKi. Let me know the label of the one you choose.
a

P = CCNC(=O)c1cc2c(-c3cc(C(C)(O)C(F)(F)F)ccc3Oc3c(C)cc(F)cc3C)cn(C)c(=O)c2[nH]1 (stereo not shown)
Q = CCNC(=O)c1cc2c(-c3cc(C(O)(CC)CC)cnc3Oc3c(C)cccc3C)cn(C)c(=O)c2[nH]1
R = Cn1cc(-c2cc(C(C)(C)O)cnc2Oc2c(Cl)cc(F)cc2Cl)c2cc(C(=O)NC(C)(C)C)[nH]c2c1=O
S = Cc1cc(F)cc(Cl)c1Oc1ccc(C(C)(O)CO)cc1-c1cn(C)c(=O)c2[nH]c(C(=O)NC(C)(C)C)cc12 (stereo not shown)
Rank descending by pKi. Response format: the labels, sorted as the prompt asks.
R, Q, P, S
(R: 6.94, Q: 6.66, P: 6.38, S: 5.86)

P = CCNC(=O)c1cc2c(-c3cc(C(C)(O)c4ccccc4)cnc3Oc3c(C)cccc3C)cn(C)c(=O)c2[nH]1 (stereo not shown)
Q = CCNC(=O)c1cc2c(-c3cc(C(C)(C)O)ccc3Oc3c(C)ccnc3C)cn(C)c(=O)c2[nH]1
# return whichever of P and Q has the smaller pKi Let me know the label of the one you choose.
Q
(Q: 6.26, P: 6.48)

All figures here come from patent US10633379B2.
